Entry source: PubChem BioAssay (NCI)

System: MDA-MB-231 breast
ASSAY NAME: NCI-60 one-dose screen, 48 h
EXPERIMENTAL CONDITIONS: 10 µM unless noted
About 83,000 compounds went through this panel and 20% of them were active in at least one assay; those are over-represented in the sample as a whole. Calls of active or inactive are those of the source. Rule for the calls: active = growth percent below 10; inactive = the rest.
Respond with a class label; see active, inactive

Recorded results for 5 compounds are shown here.
O=C(O)C[C@H](O)C[C@H](O)/C=C/c1c(C2CC2)nc2ccccc2c1-c1ccc(F)cc1 = active
CCCCCCCCCCCCCCCC[N+]1(C)CCOCC1 = active
O=C1/C(=C/c2ccc(F)cc2)CN(Cc2cn(CCNc3ccnc4cc(Cl)ccc34)nn2)C/C1=C\c1ccc(F)cc1 = active
Clc1ccc(Nc2nc(Nc3ccccc3)nc(Nc3ccc(-c4cc(-c5ccc(Cl)cc5)on4)cc3)n2)cc1 = inactive
ONc1nc(NO)c2[nH]cnc2n1 = inactive

Entry Cc1nc2cc(Nc3nc(Nc4ccc(F)cc4)nc(N4CCCC4)n3)ccc2n1Cc1ccccc1 : call = ? active

Entry O=C(Nc1ccccc1)Oc1cccc2cccnc12 : call = ? inactive

Entry COc1cccc(OC(=O)c2ccccc2)c1OC(=O)c1ccccc1 : call = ? inactive

Entry CCC(=O)Nc1nnc(Cc2ccc(OC)c(OC)c2)s1 : call = ? active

Entry NC(=O)c1cc(Cl)ccc1NC(=O)COc1ccccc1 : call = ? inactive

Entry COC(=O)[C@@]12CC[C@@H](C)[C@]3(C[C@@H](c4ccoc4)OC3=O)[C@H]1CC[C@@H]1O[C@@]12C : call = ? inactive

====

System: A498 renal
ASSAY NAME: NCI-60 one-dose screen, 48 h
EXPERIMENTAL CONDITIONS: 10 µM unless noted
The panel holds about 83,000 compounds, 20% with a hit somewhere; the sample as a whole holds those more often. Calls of active or inactive are those of the source. The calls were made as follows: active = growth percent below 10; inactive = the rest.
Respond with a class label; see t for active, f for inactive

CCN(c1ccc(C(=O)N2CCN(c3ccccc3)CC2)cc1)S(C)(=O)=O = f
CC(=O)OC[C@H](O)[C@@]1(O)CC[C@H]2[C@@H]3CCC4=CC(=O)CC[C@]4(C)[C@H]3[C@@H](O)C[C@@]21C = f
C=C[C@H]1C[C@@H]2C[C@@H]3[C@H]4C/C=C\C(=O)NCCCC5NC(=O)C(=C(O)/C=C/[C@@H]4CC(=O)[C@H]3[C@@H]2[C@H]1C)C5=O (stereo not given in full) = t
C[C@H]1C(=O)C23CCC1C[C@@]21O[C@@H]2C(C)(C)C=CC(=O)C23COC1=O = f

Entry C=C1CC[C@@H]2[C@@](C)(CCC[C@]2(C)C(=O)O)[C@@H]1CC[C@H](CO)CCO : call = ? f

====

Test system: HCT-116 colon
ASSAY NAME: NCI-60 one-dose screen, 48 h (100 = growth as untreated, 0 = no growth, -100 = all killed)
EXPERIMENTAL CONDITIONS: 10 µM unless noted
This is part of a sample that, as a whole, favours compounds with a hit. Of some 83,000 tested, about 20% had one in any assay.
RECORDED ENDPOINT: growth (%)
Only the number, expressed in %, is required.

Solved cases (4 shown):
O=[N+]([O-])c1cc2c(cc1Br)-c1ccccc1C2 = 84
CC(C)(C)[Si](C)(C)OC1[C@@H](COC(N)=O)O[C@@H](n2cnc3c(N)ncnc32)[C@H]1O[Si](C)(C)C(C)(C)C (stereo not given in full) = 90.1
CCOC(=O)C1=C(C)N2C(=NC3=C(CCCC/C3=C\c3cc(OC)c(OC)c(OC)c3)C2c2cc(OC)c(OC)c(OC)c2)S1 (stereo not given) = 68
COc1cc(CNCCCN2C(=O)c3ccc4c5c(ccc(c35)C2=O)C(=O)N(CCCNCc2cc(OC)c(OC)c(OC)c2)C4=O)cc(OC)c1OC = -61.8

Proceeding to the next compound to report its growth.
Which measured growth value corresponds to O=C(Nc1nc2ccccc2[nH]1)C(=O)Nc1nc2ccccc2[nH]1 ? 103
